Tested on: MOLT-4 leukemia
Experiment: NCI-60 one-dose screen, 48 h
Details: 10 µM
About 83,000 compounds went through this panel and 20% of them were active in at least one assay; those are over-represented in the sample as a whole. Active and inactive are the calls of the source. The calls were made as follows: active = growth percent below 10; inactive = the rest.
Labels: active, inactive

| molecule | category |
| --- | --- |
| Cc1ccc([N+](=O)[O-])c(C(=O)Nc2ccc(-c3ccc4c(c3)NC(=O)/C4=C\c3ccc[nH]3)cc2)c1 | inactive |
| CN(C(=O)c1ccc(C(C)(C)C)cc1)c1sc2c(c1C#N)CCC(=O)C2 | inactive |
| COc1ccc(-c2cc(C(=O)N=Nc3c(O)[nH]c4ccc(Br)cc34)c3ccccc3n2)cc1 | active |
| O=C(CSc1nnc(-c2ccc3nc(-c4ccc(Cl)cc4)[nH]c3c2)o1)Nc1ccc(Cl)cc1 | active |
| COc1cc(/C=C/C(=O)c2ccc(S(=O)(=O)NCCNc3nc(Nc4ccc(F)cc4)nc(N(C)C)n3)cc2)cc(OC)c1OC | active |
| Cc1noc2c(Cc3ccccc3)nn(CC(=O)N/N=C/c3ccc(F)cc3)c(=O)c12 | inactive |
| CC1CC(c2ccc(N(C)C)cc2)=NN1c1nc(O)c(C2=c3cc(Br)ccc3=NC2=O)s1 (centres undefined) | inactive |
| O=C(CSc1nnc(-c2ccc3nc(-c4ccccc4)[nH]c3c2)o1)Nc1ccc(Cl)cc1 | active |
| COc1ccc(C(=O)Nc2ccc(-c3ccc4c(c3)NC(=O)/C4=C\c3ccc[nH]3)cc2)cc1 | inactive |

###

Each entry below carries its recorded growth.
Test system: 786-0 renal
Assay: NCI-60 one-dose screen, 48 h (100 = growth as untreated, 0 = no growth, -100 = all killed)
Details: 10 µM
About 83,000 compounds went through this panel and 20% of them were active in at least one assay; those are over-represented in the sample as a whole.
measurement.name: growth (%)

| smiles.entry | target.entity | recorded.result |
| --- | --- | --- |
| COc1ccc2nc(Cl)c(-c3cc(-c4ccccc4)nc(N)n3)cc2c1 | 786-0 renal | 4.34 |
| COc1ccc(-c2cc(C(=O)N=Nc3c(O)[nH]c4ccc(Br)cc34)c3ccccc3n2)cc1 | 786-0 renal | 80.1 |
| CC1=N/C(=C\c2ccc(N(C)C)cc2)C(=O)N1CCc1ccc(S(N)(=O)=O)cc1 | 786-0 renal | 101 |
| O=C1Nc2ccc(Cl)cc2/C1=C/c1cccc(OCc2ccccn2)c1 | 786-0 renal | -14.4 |
| O=c1cc(-c2ccccc2)oc2cc(OCCCCNCc3ccccc3)cc(O)c12 | 786-0 renal | -68.2 |

###

System: MDA-MB-231 breast
Test: NCI-60 one-dose screen, 48 h (100 = growth as untreated, 0 = no growth, -100 = all killed)
Settings: 10 µM
This is part of a sample that, as a whole, favours compounds with a hit. Of some 83,000 tested, about 20% had one in any assay.
Each entry below carries its recorded growth.
measurement.name: growth (%)

| smiles.entry | target.entity | recorded.result |
| --- | --- | --- |
| COc1ccc2[nH]c(O)c(N=NC(=O)c3cc(-c4ccc(C)cc4)nc4ccccc34)c2c1 | MDA-MB-231 breast | 98.3 |
| Cn1cc(-c2cc(N)n3nc(-c4c[nH]c5ccc(Br)cc45)cc3n2)c2cc(Br)cnc21 | MDA-MB-231 breast | -82.5 |
| CNCc1cccc2c1OCCCCCC[C@@](C)(O)CC1(CC1)S(=O)(=O)c1ccc(cc1)-c1cnc(N)c(n1)C(=O)N2 | MDA-MB-231 breast | -92.8 |
| O=c1[nH]c2ccccc2cc1CSc1ccc(Nc2nccc(-c3ccc4ccccc4c3)n2)cc1 | MDA-MB-231 breast | 30.5 |
